Values of pIC50 for Proto-oncogene tyrosine-protein kinase Src (Gallus gallus, UniProt P00523), collected from a number of published sources:
pIC50: −log10 of the molar value.
Output y for pIC50 not less than 7; output n otherwise.

Q: Could you tell me if the measured pIC50 of CCOC(=O)CCCc1ccc(Nc2ncc3cc(-c4c(Cl)cccc4Cl)c(=O)n(C)c3n2)cc1 reaches 7 or more?
Result: n

Q: Reported pIC50 at or above 7? COc1cc(OC)cc(-c2cc3cnc(NCCCCN4CCN(C)CC4)cc3nc2NC(=O)NC(C)(C)C)c1
Result: n

Q: Is pIC50 for CCN(CC)C(=O)Nc1nc2nc(NCCCN3CCN(C)CC3)ncc2cc1-c1c(Cl)cccc1Cl at or above 7?
Result: n
